Target: Adrenergic receptor alpha-1 (Rattus norvegicus, UniProt P15823+P23944+P43140)
Test: In vitro binding affinity towards Alpha-1 adrenergic receptor by the displacement of [3H]prazosin radioligand in rat cortical homogenates
Exam item: assign fulfilled to entries whose Ki is below 400 nM and not fulfilled to entries at or above 400 nM. Note that a value of exactly 400 nM receives not fulfilled.

>  <chemSmiles>
O=C1Cc2c(OCCN3CCc4ccccc4C3)ccc(F)c2N1

>  <studySystem>
Adrenergic receptor alpha-1 (Rattus norvegicus, UniProt P15823+P23944+P43140)

>  <assignedClass>
fulfilled

$$$$
>  <chemSmiles>
O=C1Cc2c(cccc2OCCNCc2ccccc2)N1

>  <studySystem>
Adrenergic receptor alpha-1 (Rattus norvegicus, UniProt P15823+P23944+P43140)

>  <assignedClass>
not fulfilled

$$$$
>  <chemSmiles>
NCCOc1cccc2c1CC(=O)N2

>  <studySystem>
Adrenergic receptor alpha-1 (Rattus norvegicus, UniProt P15823+P23944+P43140)

>  <assignedClass>
not fulfilled

$$$$
>  <chemSmiles>
CN(CCOc1cccc2c1CC(=O)N2)Cc1ccccc1

>  <studySystem>
Adrenergic receptor alpha-1 (Rattus norvegicus, UniProt P15823+P23944+P43140)

>  <assignedClass>
not fulfilled

$$$$
>  <chemSmiles>
O=C1Cc2c(OCCNCc3ccsc3)ccc(Cl)c2N1

>  <studySystem>
Adrenergic receptor alpha-1 (Rattus norvegicus, UniProt P15823+P23944+P43140)

>  <assignedClass>
fulfilled

$$$$
>  <chemSmiles>
O=C1Cc2c(OCCNCC3CCCCC3)ccc(F)c2N1

>  <studySystem>
Adrenergic receptor alpha-1 (Rattus norvegicus, UniProt P15823+P23944+P43140)

>  <assignedClass>
fulfilled

$$$$
>  <chemSmiles>
O=C1Cc2c(OCCNCc3cccs3)ccc(Cl)c2N1

>  <studySystem>
Adrenergic receptor alpha-1 (Rattus norvegicus, UniProt P15823+P23944+P43140)

>  <assignedClass>
fulfilled

$$$$
>  <chemSmiles>
O=C1Cc2c(OCCNCc3ccc(-c4ccccc4)cc3)ccc(F)c2N1

>  <studySystem>
Adrenergic receptor alpha-1 (Rattus norvegicus, UniProt P15823+P23944+P43140)

>  <assignedClass>
fulfilled

$$$$
>  <chemSmiles>
O=C1Cc2c(OCCNCc3cccs3)ccc(F)c2N1

>  <studySystem>
Adrenergic receptor alpha-1 (Rattus norvegicus, UniProt P15823+P23944+P43140)

>  <assignedClass>
fulfilled

$$$$
>  <chemSmiles>
O=C1Cc2c(OCCNCc3ccsc3)ccc(F)c2N1

>  <studySystem>
Adrenergic receptor alpha-1 (Rattus norvegicus, UniProt P15823+P23944+P43140)

>  <assignedClass>
fulfilled

$$$$
>  <chemSmiles>
O=C1Cc2c(OCCN3Cc4ccccc4C3)ccc(Cl)c2N1

>  <studySystem>
Adrenergic receptor alpha-1 (Rattus norvegicus, UniProt P15823+P23944+P43140)

>  <assignedClass>
fulfilled

$$$$
>  <chemSmiles>
c1ccc(CNC[C@H]2CCc3ccc4[nH]ccc4c3O2)cc1

>  <studySystem>
Adrenergic receptor alpha-1 (Rattus norvegicus, UniProt P15823+P23944+P43140)

>  <assignedClass>
fulfilled

$$$$
>  <chemSmiles>
O=C1Cc2c(OCCNCc3cccc(-c4ccccc4)c3)ccc(F)c2N1

>  <studySystem>
Adrenergic receptor alpha-1 (Rattus norvegicus, UniProt P15823+P23944+P43140)

>  <assignedClass>
not fulfilled

$$$$
>  <chemSmiles>
O=C1Cc2c(OCCNCc3ccc(Cl)cc3)ccc(Cl)c2N1

>  <studySystem>
Adrenergic receptor alpha-1 (Rattus norvegicus, UniProt P15823+P23944+P43140)

>  <assignedClass>
fulfilled

$$$$
>  <chemSmiles>
O=C1Cc2c(OCCNCc3ccccc3)ccc(F)c2N1

>  <studySystem>
Adrenergic receptor alpha-1 (Rattus norvegicus, UniProt P15823+P23944+P43140)

>  <assignedClass>
fulfilled

$$$$
